B1: CLCN6 (parent)
chain: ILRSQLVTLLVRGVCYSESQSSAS

- Variants of: B1
- experiment description: protein stability index of a GFP-peptide fusion (GPS, HEK-293T) (PSI 1-6); higher = more stable;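 further: lentivirally expressed fusions sorted by FACS into six bins by GFP to DsRed ratio, PSI derived from sequencing read proportions per bin multiplied by bin number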
- condition: c terminus: a fixed tail appended
# reported protein stability index; entries follow
API note: the answer field is a bare number with no unit suffix.

Reference set, count: 4
biopolymer sequence	protein stability index
ILRSVLVTLLVRGVCYSESQSSAS [Q5V]	2.98
ILRMQLVTLLVRGVCYSESQSSAS [S4M]	2.78
ILRSQLVTLLVRGVCYSESQSSAD [S24D]	2.68
ILRSQLATLLVRGVCYSESQSSAS [V7A]	2.81

Now for a further variant.
**Q:** Entry ILRSQLVTLLVRGVCWSESQSSAS [Y16W] : reported protein stability index = ?
**A:** 2.61
